Conditions: in acetonitrile, 318.15 K

# smiles_input, solubility (mole fraction)
data = [
    ("CC1(C)CCC2=C(O1)c1ccccc1C(=O)C2=O", 0.0325),
]

###

Conditions: in ethanol, 303.15 K
experimental_readout: solubility (mole fraction)

# smiles_input, experimental_readout, value_reported
records = [
    ("CC1(C)CCC2=C(O1)c1ccccc1C(=O)C2=O", "solubility (mole fraction)", 0.00595),
]

###

Details: in acetone, 298.15 K

# smiles_input, solubility (mole fraction)
measured = [
    ("CC1(C)CCC2=C(O1)c1ccccc1C(=O)C2=O", 0.0205),
]

###

Conditions: in n-propanol, 298.15 K

# smiles_input, solubility (mole fraction)
measured = [
    ("CC1(C)CCC2=C(O1)c1ccccc1C(=O)C2=O", 0.00669),
]
